# assay notes: Solubility measurement by shake flask method (UV spectrophotometry)
# applied conditions: 37 °C, pH 8.3, aqueous with cosolvent or surfactant or cyclodextrin, thermodynamic from solid, Solubility, Water+ ChCl-U50%, 50:50% mass fraction choline chloride-urea (1:2) DES:water; 37 ± 1°C, 48 h
recorded endpoint: solubility at 48 h (µg/mL)

Consider the worked cases shown below.
Just so you know, measured solubility at 48 h for CC(C)Cc1ccc(C(C)C(=O)O)cc1 (stereo not shown) came out at 3890

Just so you know, measured solubility at 48 h for COc1ccccc1OCCNCC(O)COc1cccc2[nH]c3ccccc3c12 (stereo not shown) came out at 620

I = CN1C(C(=O)Nc2ccccn2)=C(O)c2ccccc2S1(=O)=O
II = NC(=O)N1c2ccccc2C=Cc2ccccc21 [Carbamazepine, carbamazepine]
Challenge: Lab note: check whether I or II shows the higher recorded solubility at 48 h. // return label of chosen record
Response given: II

I = O=C(O)c1ccccc1O
II = Nc1nnc(-c2cccc(Cl)c2Cl)c(N)n1
III = CC(=O)N1CCN(c2ccc(OCC3COC(Cn4ccnc4)(c4ccc(Cl)cc4Cl)O3)cc2)CC1 (stereo not shown)
IV = O=C1NC(=O)C(c2ccccc2)(c2ccccc2)N1
Challenge: Order the records, beginning with the lowest solubility at 48 h and ending with the highest. Output spec: labels arranged per the requested ranking.
Response given: III, IV, II, I

---

# assay notes: Solubility measurement by shake flask method (UV spectrophotometry)
# applied conditions: solubility ratio in DES50% to DES10%, ChCl-U
recorded endpoint: SChCl-U50%/ SChCl-U10%

Consider the worked cases shown below.
Just so you know, measured SChCl-U50%/ SChCl-U10% for CN1CC(=O)N2[C@H](c3ccc4c(c3)OCO4)c3[nH]c4ccccc4c3C[C@@H]2C1=O [Tadalafil, tadalafil] came out at 8.42

Just so you know, measured SChCl-U50%/ SChCl-U10% for NC(=O)N1c2ccccc2C=Cc2ccccc21 [Carbamazepine, carbamazepine] came out at 8.48

Just so you know, measured SChCl-U50%/ SChCl-U10% for O=C1NC(=O)C(c2ccccc2)(c2ccccc2)N1 [Phenytoin, phenytoin] came out at 7.25

Just so you know, measured SChCl-U50%/ SChCl-U10% for CC(=O)N1CCN(c2ccc(OCC3COC(Cn4ccnc4)(c4ccc(Cl)cc4Cl)O3)cc2)CC1 (centres unmarked) [Ketoconazole, ketoconazole] came out at 2.24

Just so you know, measured SChCl-U50%/ SChCl-U10% for Nc1nnc(-c2cccc(Cl)c2Cl)c(N)n1 [Lamotrigine, lamotrigine] came out at 4.41

P = CC(C)NCC(O)COc1ccc(CC(N)=O)cc1 (centres unmarked) [Atenolol, atenolol]
Q = O=C(O)c1ccccc1O [Salicylic acid, salicylic acid]
Challenge: Lab note: check whether P or Q shows the higher recorded SChCl-U50%/ SChCl-U10%. // return label of chosen record
Response given: Q
(Q: 3.29, P: 1.05)

---

# assay notes: Solubility measurement by shake flask method (UV spectrophotometry)
# applied conditions: 37 °C, pH 7.5, aqueous with cosolvent or surfactant or cyclodextrin, thermodynamic from solid, Solubility, Water + ChCl-U10%, 10:90% mass fraction choline chloride-urea (1:2) DES:water; 37 ± 1°C, 48 h
recorded endpoint: solubility at 48 h (µg/mL)

Just so you know, measured solubility at 48 h for COc1ccccc1OCCNCC(O)COc1cccc2[nH]c3ccccc3c12 (stereo not shown) came out at 91

Just so you know, measured solubility at 48 h for NC(=O)N1c2ccccc2C=Cc2ccccc21 [Carbamazepine, carbamazepine] came out at 463

Just so you know, measured solubility at 48 h for O=C(O)c1ccccc1O came out at 9840

Just so you know, measured solubility at 48 h for CC(C)Cc1ccc(C(C)C(=O)O)cc1 (stereo not shown) came out at 1300

Just so you know, measured solubility at 48 h for CC(=O)N1CCN(c2ccc(OCC3COC(Cn4ccnc4)(c4ccc(Cl)cc4Cl)O3)cc2)CC1 (stereo not shown) came out at 28

I = O=C1NC(=O)C(c2ccccc2)(c2ccccc2)N1
II = Nc1nnc(-c2cccc(Cl)c2Cl)c(N)n1
III = CN1CC(=O)N2[C@H](c3ccc4c(c3)OCO4)c3[nH]c4ccccc4c3C[C@@H]2C1=O
Challenge: Could you please sort these 3 entries by solubility at 48 h from high to low? Output spec: labels arranged per the requested ranking.
Response given: II, I, III
(II: 482 µg/mL, I: 104 µg/mL, III: 18 µg/mL)

---

# assay notes: Solubility measurement by shake flask method (UV spectrophotometry)
# applied conditions: solubility ratio in DES50% to DES10%, ChCl-U
# Protocol: A DES composed of ChCl + G/U was selected for this study. It was prepared based on a previously reported method in the literature ([13], [14]). […] The measured amounts of these compositions were added into a beaker and sealed firmly with Parafilm. […] Many different techniques of solubility measurements have been reported in the literature. […] Finally, the absorbance of each solution was converted to concentration using the calibration curves, taking into account the dilution factor. […]
recorded endpoint: SChCl-U50%/ SChCl-U10%
Give the figure only, with no unit attached.

Consider the worked cases shown below.
Just so you know, measured SChCl-U50%/ SChCl-U10% for CN1C(C(=O)Nc2ccccn2)=C(O)c2ccccc2S1(=O)=O came out at 3.63

Just so you know, measured SChCl-U50%/ SChCl-U10% for COc1ccccc1OCCNCC(O)COc1cccc2[nH]c3ccccc3c12 (stereo not shown) came out at 6.79

Just so you know, measured SChCl-U50%/ SChCl-U10% for c1ccc2c(c1)Nc1ccccc1S2 came out at 5.83

Now look at this entry.
Just so you know, measured SChCl-U50%/ SChCl-U10% for O=C(O)c1ccccc1 came out at 3.16
